assay-details: Pharmacokinetics in hGLP-1R mice after oral dosing
Type: in vivo, male C57BL/6J hGLP-1R mouse
condition-parameters: male, C57BL/6J hGLP-1R, mouse, plasma, po, 3 mg/kg, hGLP-1R mouse plasma, PO 3 mg/kg, individual mice; read-out: Tmax
quantity-name: Tmax
Put your answer as a value accompanied by its unit after it.

Q. Which Tmax is listed for `N#Cc1ccc(COc2cccc(C3CCN(Cc4nc5ccc(C(=O)O)cc5n4Cc4cncs4)CC3)n2)c(F)c1` ?
A. 30 min

---

assay-details: Rat pharmacokinetics, oral dosing
Assay type: in vivo, Sprague-Dawley rats
condition-parameters: male, Sprague-Dawley, rat, plasma, po, 3 mg/kg, rat plasma, 3 mg/kg PO (0.6 mg/mL)
quantity-name: AUC(0-t)
Please give the number followed by its unit.

Solved entries:
Q. Please give the measured AUC(0-t) for this molecule: N#Cc1ccc(COc2cccc(C3CCN(Cc4nc5ccc(C(=O)O)cc5n4Cc4cncs4)CC3)n2)c(F)c1 [Compound 2]
A. 525 ng·h/mL

Q. // lookup AUC(0-t) for N#Cc1cnc(COc2cccc(C3CCN(Cc4nc5ccc(C(=O)O)cc5n4Cc4cncs4)CC3)n2)c(F)c1 [Compound 29]
A. 411 ng·h/mL

Q. I have this molecule here, N#Cc1ccc(COc2cccc(C3CCN(Cc4nc5ccc(C(=O)O)cc5n4C[C@@H]4CCO4)CC3)n2)c(F)c1 [Reference Compound A, reference compound] , and I need its recorded AUC(0-t).
A. 121 ng·h/mL

As a next step, examine the molecule that follows.
Q. Report AUC(0-t) for [2H]C([2H])(Oc1cccc(C2CCN(Cc3nc4ccc(C(=O)O)cc4n3Cc3cncs3)CC2)n1)c1ccc(C#N)cc1F [Compound 27] please.
A. 617 ng·h/mL

---

assay-details: Rat pharmacokinetics, oral dosing
Assay type: in vivo, Sprague-Dawley rats
condition-parameters: male, Sprague-Dawley, rat, plasma, po, 3 mg/kg, rat plasma, 3 mg/kg PO (0.3 mg/mL)
Entries annotated with measured Cmax
Answer by giving the amount and then stating its unit.

Q. If you can, please state the reported Cmax value of `Cc1ncsc1Cn1c(CN2CCC(c3cccc(OCc4ccc(C#N)cc4F)n3)CC2)nc2ccc(C(=O)O)cc21` .
A. 21.6 ng/mL

Q. If you can, please state the reported Cmax value of N#Cc1ccc(COc2cccc(C3CCN(Cc4nc5ccc(C(=O)O)cc5n4C[C@@H]4CCO4)CC3)n2)c(F)c1 [Reference Compound A, reference compound] .
A. 37.7 ng/mL

Q. Query: Cmax; subject: `N#Cc1ccc(COc2cccc(C3CCN(Cc4nc5ccc(C(=O)O)cc5n4Cc4cncs4)CC3)n2)c(F)c1`
A. 117 ng/mL

Continue with the next molecule.
Q. Can you look up the measured Cmax of `N#Cc1cc(F)c2c(c1)CCN(c1cccc(C3CCN(Cc4nc5ccc(C(=O)O)cc5n4Cc4cncs4)CC3)n1)C2` for me?
A. 79.8 ng/mL

---

assay-details: Pharmacokinetics in hGLP-1R mice after oral dosing
Type: in vivo, male C57BL/6J hGLP-1R mouse
condition-parameters: male, C57BL/6J hGLP-1R, mouse, plasma, po, 3 mg/kg, hGLP-1R mice, total, PO 3.0 mg/kg; read-out: T1/2 (converted)
quantity-name: half-life (h)
Record the value in h, omitting the unit from your answer.

Q. GET /values?readout=half-life&item= `N#Cc1ccc(COc2cccc(C3CCN(Cc4nc5ccc(C(=O)O)cc5n4Cc4cncs4)CC3)n2)c(F)c1`
A. 2.03

---

System: rat hepatocytes
assay-details: Metabolic stability in rat hepatocytes
Assay type: in vitro ADME
quantity-name: Half-life relative to reference

Q. Provide the documented Half-life relative to reference with rat hepatocytes as the system for N#Cc1ccc(COc2ccnc(C3CCN(Cc4nc5ccc(C(=O)O)cc5n4Cc4cncs4)CC3)n2)c(F)c1 [Compound 20]
A. significantly higher

Q. For the record [2H]C([2H])(Oc1cccc(C2CCN(Cc3nc4ccc(C(=O)O)cc4n3Cc3cncs3)CC2)n1)c1ccc(Cl)cc1F [Compound 26] , what value of Half-life relative to reference is listed for rat hepatocytes?
A. significantly higher

Q. Notebook: pull reported Half-life relative to reference for rat hepatocytes, entry CCc1scnc1Cn1c(CN2CCC(c3cccc(OCc4nc5c(F)cc(C#N)cc5s4)n3)CC2)nc2ccc(C(=O)O)cc21 [Compound 13]
A. significantly lower

Q. Record Cc1ncsc1Cn1c(CN2CCC(c3cccc(OCc4ccc(C#N)cc4F)n3)CC2)nc2ccc(C(=O)O)cc21 [Compound 4] : what is its Half-life relative to reference with rat hepatocytes?
A. significantly higher

Here is the next item to consider.
Q. Request body: readout Half-life relative to reference, system rat hepatocytes, query N#Cc1ccc(COc2cccc(N3CCN(Cc4nc5ccc(C(=O)O)cc5n4Cc4cncs4)CC3)n2)c(F)c1 [Compound 30] . Return the value.
A. significantly higher

---

assay-details: Pharmacokinetics in hGLP-1R mice after oral dosing
Type: in vivo, male C57BL/6J hGLP-1R mouse
condition-parameters: male, C57BL/6J hGLP-1R, mouse, plasma, po, 1 mg/kg, hGLP-1R mouse plasma, PO 1 mg/kg, 2 h
quantity-name: concentration at 2 h (ng/mL)
Response body: numeric value in ng/mL, unit text excluded.

Q. Recorded concentration at 2 h for `N#Cc1ccc(COc2cccc(C3CCN(Cc4nc5ccc(C(=O)O)cc5n4Cc4cncs4)CC3)n2)c(F)c1` , please?
A. 48.6

Now, please, on to the next molecule.
Q. Could you tell me which concentration at 2 h is on file for N#Cc1ccc(COc2cccc(C3CCN(Cc4nc5ccc(C(=O)O)cc5n4C[C@@H]4CCO4)CC3)n2)c(F)c1 [Reference Compound A, reference compound] ?
A. 14.5

---

In this section, each of the compounds is paired with its reported half-life.
assay-details: Rat pharmacokinetics, oral dosing
Type: in vivo, Sprague-Dawley rats
condition-parameters: male, Sprague-Dawley, rat, plasma, po, 3 mg/kg, rat plasma, 3 mg/kg PO (0.3 mg/mL)
Answer with a number only, understood to be in h.

Sample records with half-life:
Q. What value of half-life has been reported for the following compound? N#Cc1ccc(COc2cccc(C3CCN(Cc4nc5ccc(C(=O)O)cc5n4C[C@@H]4CCO4)CC3)n2)c(F)c1 [Reference Compound A, reference compound]
A. 2

Q. Query: half-life; subject: `N#Cc1cc(F)c2c(c1)CCN(c1cccc(C3CCN(Cc4nc5ccc(C(=O)O)cc5n4Cc4cncs4)CC3)n1)C2`
A. 1.1

Q. Reported half-life for `Cc1ncsc1Cn1c(CN2CCC(c3cccc(OCc4ccc(C#N)cc4F)n3)CC2)nc2ccc(C(=O)O)cc21` : what is it?
A. 0.96

Others:
Q. Could you tell me which half-life is on file for `N#Cc1ccc(COc2cccc(C3CCN(Cc4nc5ccc(C(=O)O)cc5n4Cc4cncs4)CC3)n2)c(F)c1` ?
A. 3.3

---

assay-details: Pharmacokinetics in hGLP-1R mice after oral dosing
Assay type: in vivo, male C57BL/6J hGLP-1R mouse
condition-parameters: male, C57BL/6J hGLP-1R, mouse, plasma, po, 1 mg/kg, hGLP-1R mouse plasma, PO 1 mg/kg, individual mice; read-out: MRT0-last
Description: IPGTT (120 min)—PK bleeding: 40 μL blood samples (all treatment groups) were collected from mice under the jaw at IPGTT-120 min after blood glucose measurement into pre-chilled EDTA-2K tubes. Blood samples were processed for plasma by centrifugation at 4° C., 3200×g for 10 min. […] The linear/log trapezoidal rule was applied in obtaining the PK parameters. Individual plasma concentration values that were below the lower limit of quantitation (LOQ) were excluded from the PK parameter calculation. […]
quantity-name: MRT last (h)
// units = h; emit number, no label

Q. State the recorded MRT last for this entry: N#Cc1ccc(COc2cccc(C3CCN(Cc4nc5ccc(C(=O)O)cc5n4C[C@@H]4CCO4)CC3)n2)c(F)c1 [Reference Compound A, reference compound]
A. 1.3

Okay, next one:
Q. Given the entry `N#Cc1ccc(COc2cccc(C3CCN(Cc4nc5ccc(C(=O)O)cc5n4Cc4cncs4)CC3)n2)c(F)c1` , report its measured MRT last.
A. 1.32

---

assay-details: Pharmacokinetics in hGLP-1R mice after oral dosing
Format: in vivo, male C57BL/6J hGLP-1R mouse
condition-parameters: male, C57BL/6J hGLP-1R, mouse, plasma, po, 1 mg/kg, hGLP-1R mouse plasma, PO 1 mg/kg, 8 h; read-out: Mean Concentration
The entries below come with measured concentration at 8 h values attached.
Express your answer as a number followed by its unit.

Q. Could you tell me which concentration at 8 h is on file for N#Cc1ccc(COc2cccc(C3CCN(Cc4nc5ccc(C(=O)O)cc5n4C[C@@H]4CCO4)CC3)n2)c(F)c1 [Reference Compound A, reference compound] ?
A. 2.42 ng/mL

Q. Would you kindly share the measured concentration at 8 h for N#Cc1ccc(COc2cccc(C3CCN(Cc4nc5ccc(C(=O)O)cc5n4Cc4cncs4)CC3)n2)c(F)c1 [Compound 2] ?
A. 4.73 ng/mL
